test system: low-density lipoprotein cholesterol from human plasma (LDL); test: LDL oxidation inhibition assay (CuSO4-induced, TBARS); assay type: biochemical; conditions: copper-induced LDL oxidation, n = 3
I'd appreciate it if you marked entries 1 (yes) when IC50 LDL oxidation inhibition is lower than 50 µg/mL and 0 (no) when it is not.

Would you please look over these solved cases?
CC(C)[C@H](C)CC[C@@H](C)[C@H]1CC[C@H]2[C@@H]3CC=C4C[C@@H](O)CC[C@]4(C)[C@H]3CC[C@]12C    0 (no)
CC(C)CCC[C@@H](C)[C@H]1CC[C@H]2[C@@H]3CC(=O)C4=CC(=O)CC[C@]4(C)[C@H]3CC[C@]12C    1 (yes)
O=c1c(O)c(-c2ccc(O)c(O)c2)oc2cc(O)cc(O)c12 [quercetin, reference compound]    1 (yes)

Inquiry: For this molecule, is IC50 LDL oxidation inhibition lower than 50 µg/mL? `CC[C@H](CC[C@@H](C)[C@H]1CC[C@H]2[C@@H]3CC=C4C[C@@H](O)CC[C@]4(C)[C@H]3CC[C@]12C)C(C)C`
Reply text: 0 (no)

====

biological target: porcine pancreatic lipase (PL) (Sus scrofa); assay: Pancreatic lipase inhibition assay (p-NPB hydrolysis); type: biochemical
Sequence (P00591 whole entry): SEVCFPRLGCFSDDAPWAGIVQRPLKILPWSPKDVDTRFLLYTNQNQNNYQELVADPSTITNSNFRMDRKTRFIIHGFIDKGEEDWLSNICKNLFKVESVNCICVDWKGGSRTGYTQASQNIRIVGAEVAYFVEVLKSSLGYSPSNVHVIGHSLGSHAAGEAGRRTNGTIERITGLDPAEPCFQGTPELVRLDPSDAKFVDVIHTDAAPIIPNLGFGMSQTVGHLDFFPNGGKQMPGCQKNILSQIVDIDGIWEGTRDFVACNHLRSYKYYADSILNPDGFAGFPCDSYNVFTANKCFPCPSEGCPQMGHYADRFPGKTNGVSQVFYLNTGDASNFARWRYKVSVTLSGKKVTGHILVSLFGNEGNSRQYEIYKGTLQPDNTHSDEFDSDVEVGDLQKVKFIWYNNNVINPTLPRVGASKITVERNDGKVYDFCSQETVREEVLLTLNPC
reportedEndpoint: pIC50
In simple prose, pIC50 is minus the logarithm base ten of a concentration in moles per litre.

Inquiry: Look up and state reported pIC50 for `CC(C)[C@H](C)CC[C@@H](C)[C@H]1CC[C@H]2[C@@H]3CC=C4C[C@@H](O)CC[C@]4(C)[C@H]3CC[C@]12C`
Reply text: 3.49

All figures here come from paper PMC6268935.
